Below, each of the compounds is paired with its reported TGI value.
- Test system: OVCAR-8 ovarian
- Assay Protocol: NCI tumour cell line growth inhibition, 48 h
Readout Type: TGI

>  <Compound>
CC(C)N(C(=O)C12C3C4C1C1C4(C#N)C3C12C#N)C(C)C (stereo not given)

>  <Subject Of Test>
OVCAR-8 ovarian

>  <Recorded Result>
> 100 µM

$$$$
>  <Compound>
C=C1C(=O)OC2CC(C)C(C(CC(C)=O)OC(C)=O)=CCC12 (stereo not given)

>  <Subject Of Test>
OVCAR-8 ovarian

>  <Recorded Result>
> 51.8 µM

$$$$
>  <Compound>
CC1(C)/C(=N\NC(N)=O)C2CCC1C2 (stereo not given)

>  <Subject Of Test>
OVCAR-8 ovarian

>  <Recorded Result>
> 100 µM

$$$$
>  <Compound>
CO/N=C(\C(=O)OC(=NC1CCCCC1)NC1CCCCC1)c1csc(NC(c2ccccc2)(c2ccccc2)c2ccccc2)n1

>  <Subject Of Test>
OVCAR-8 ovarian

>  <Recorded Result>
> 10 µM

$$$$
>  <Compound>
N#C[C@H](c1ccccn1)c1nc2ccccc2nc1Cl

>  <Subject Of Test>
OVCAR-8 ovarian

>  <Recorded Result>
> 100 µM

$$$$
